pIC50 values for the molecules below.
target: BTK (Homo sapiens (Human), UniProt Q06187); assay: In vitro BTK kinase assay: BTK-POLYGAT-LS ASSAY; conditions: read-out: IC50 (10 uM ATP)
Sequence (Q06187 whole entry): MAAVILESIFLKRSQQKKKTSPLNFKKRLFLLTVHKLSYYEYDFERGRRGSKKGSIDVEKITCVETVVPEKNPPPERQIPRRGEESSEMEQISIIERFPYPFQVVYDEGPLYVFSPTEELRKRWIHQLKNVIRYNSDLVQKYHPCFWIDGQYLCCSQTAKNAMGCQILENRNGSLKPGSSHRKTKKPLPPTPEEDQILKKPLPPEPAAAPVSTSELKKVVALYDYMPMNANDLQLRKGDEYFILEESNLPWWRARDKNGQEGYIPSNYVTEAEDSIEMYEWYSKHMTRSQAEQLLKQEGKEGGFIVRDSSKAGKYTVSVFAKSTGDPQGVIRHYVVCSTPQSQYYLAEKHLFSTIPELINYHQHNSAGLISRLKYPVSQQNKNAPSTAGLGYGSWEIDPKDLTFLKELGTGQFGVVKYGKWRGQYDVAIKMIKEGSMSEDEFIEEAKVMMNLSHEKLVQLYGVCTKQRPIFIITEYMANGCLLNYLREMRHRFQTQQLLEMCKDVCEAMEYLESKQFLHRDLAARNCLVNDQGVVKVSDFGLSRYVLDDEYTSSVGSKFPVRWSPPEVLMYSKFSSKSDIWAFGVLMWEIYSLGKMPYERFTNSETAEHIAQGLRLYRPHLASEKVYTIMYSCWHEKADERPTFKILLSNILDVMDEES
pIC50: −log10 of the molar value.
Readout Type: pIC50

1. Nc1ncnc(N2CCC[C@@H](N3CCCC(Nc4cc(Cl)cc(C(F)(F)F)c4)C3=O)C2)c1F (stereo partly drawn) = > 7.00
2. Nc1ncnc(N2CCC[C@@H](N3CCC[C@H](Nc4cc(Cl)cc(C(F)(F)F)c4)C3=O)C2)c1F = > 7.00
3. Nc1ncnc(N2CCC[C@@H](N3CCC[C@@H](Nc4cc(Cl)cc(C(F)(F)F)c4)C3=O)C2)c1F = > 7.00

---

biological target: BTK (Homo sapiens (Human), UniProt Q06187); experiment: In vitro BTK kinase assay: BTK-POLYGAT-LS ASSAY; settings: read-out: IC50 (10 uM ATP); 10 uM ATP; in vitro Btk kinase assay, Example 41
pIC50: −log10 of the molar value.
pIC50 values for the molecules below.
Readout Type: pIC50

1. Cc1cc(NC(=O)Nc2cccc(C3CCCN(c4ncnc5[nH]ccc45)C3)c2)n(-c2ccccc2)n1 (centres unmarked) [compound 227] = < 5.00
2. FC(F)(F)c1cccnc1Nc1cccc(C2CCCN(c3ncnc4[nH]ccc34)C2)c1 (centres unmarked) [compound 143] = < 5.00
3. CC(C)c1cccc(C(C)C)c1NC(=O)Nc1cccc(C2CCCN(c3ncnc4[nH]ccc34)C2)c1 (centres unmarked) [compound 154] = > 7.00
4. Nc1ncnc(N2CC[C@H](C(F)(F)F)[C@@H](N3CCC[C@@H](Nc4cc(Cl)cc(Cl)c4)C3=O)C2)c1F [compound 337] = > 7.00
5. CC(=O)N1CCCC(CNC(=O)Nc2cccc(C3CCCN(c4ncnc5[nH]ccc45)C3)c2)C1 (centres unmarked) [compound 240] = < 5.00
6. O=C(Nc1csc(C2CCCN(c3ncnc4[nH]ncc34)C2)n1)Nc1c(F)cc(F)cc1N1CCCC1 (centres unmarked) [compound 112] = > 7.00
7. COc1c(N)ncnc1N1CCCC(c2cccc(NC(=O)Nc3ccccc3)c2)C1 (centres unmarked) [Cmpd 97] = < 5.00
8. O=C(Nc1cccc(C2CCCN(c3ncnc4[nH]ccc34)C2)c1)c1cccc(O)c1 (centres unmarked) [compound 15] = < 5.00

---

biological target: BTK (Homo sapiens (Human), UniProt Q06187); test: In vitro BTK kinase assay: BTK-POLYGAT-LS ASSAY; conditions: read-out: IC50 (10 uM ATP); 10 uM ATP; in vitro Btk kinase assay, Example 41
pIC50: −log10 of the molar value.
Readout Type: pIC50

1. O=C(Nc1cccc(C2CCCN(c3ncnc4[nH]ccc34)C2)c1)NC1CCNCC1 (stereo not shown) [compound 243] = < 5.00
2. CNC(=O)Nc1cccc(C2CCCN(c3ncnc4[nH]ccc34)C2)c1 (stereo not shown) [compound 262] = < 5.00
3. Nc1ncnc(N2CCC[C@@H](N3CC(O)C(O)C[C@@H](Nc4cc(F)cc(Cl)c4)C3=O)C2)c1F (stereo partly shown) [compound 348] = > 7.00
4. Nc1ncnc(N2CCC[C@@H](N3CC=CC[C@@H](Nc4cc(F)cc(Cl)c4)C3=O)C2)c1F [compound 347] = > 7.00
5. C[C@H]1CCN(c2ncnc(N)c2F)C[C@@H]1N1CCCC(Nc2cc(Cl)cc(Cl)c2)C1=O (stereo partly shown) [compound 281] = > 7.00
6. Nc1ncnc(N2CCC[C@@H](N3CCCC[C@@H](Nc4cc(F)cc(Cl)c4)C3=O)C2)c1F [compound 346] = > 7.00
7. O=C(Nc1csc(C2CCCN(c3ncnc4[nH]ncc34)C2)n1)Nc1ccccc1N1CCCC1 (stereo not shown) [compound 110] = > 7.00
8. O=C(Nc1ccncc1)Nc1cccc(C2CCCN(c3ncnc4[nH]ccc34)C2)c1 (stereo not shown) [Cmpd 31] = < 5.00
9. Nc1ncnc(N2CCC[C@@H](N3CCCC(Nc4ccc(C(=O)O)cc4)C3=O)C2)c1F (stereo partly shown) [compound 298] = < 5.00
10. CC(C)(C)c1ccc(NC(=O)Nc2cccc(C3CCCN(c4ncnc5[nH]ccc45)C3)c2)cc1 (stereo not shown) [compound 263] = < 5.00
11. Nc1ncnc(N2CCC[C@@H](N3CCCC(Nc4cc(Cl)c(F)c(Cl)c4)C3=O)C2)c1F (stereo partly shown) [compound 309] = > 7.00
12. O=C(Nc1cccc(C2CCCN(c3ncnc4[nH]ccc34)C2)c1)Nc1ccncc1Cl (stereo not shown) [compound 222] = < 5.00
13. Nc1cc(N2CCC[C@@H](N3CCCC(Nc4cc(F)cc(Cl)c4)C3=O)C2)ncn1 (stereo partly shown) [compound 361] = > 7.00
14. Cc1cc(NC(=O)Nc2cccc(C3CCCN(c4ncnc5[nH]ccc45)C3)c2)c(C(F)(F)F)o1 (stereo not shown) [compound 236] = < 5.00
15. O=C(NCC1CCNCC1)Nc1cccc(C2CCCN(c3ncnc4[nH]ccc34)C2)c1 (stereo not shown) [compound 231] = < 5.00
16. Nc1ncnc(N2CCC[C@@H](N3CCCC(Nc4cc(Cl)cc(Cl)c4)C3=O)C2)c1F (stereo partly shown) [compound 278] = > 7.00
17. O=C1[C@@H](Nc2cc(Cl)cc(Cl)c2)CCN1[C@@H]1CCCN(c2ncnc3[nH]ccc23)C1 [compound 357] = > 7.00
18. CCOC(=O)c1ccccc1NC1CCCN([C@@H]2CCCN(c3ncnc(N)c3F)C2)C1=O (stereo partly shown) [compound 295] = < 5.00
19. CO[C@H]1CCN(c2ccccc2NC(=O)Nc2cccc(C3CCCN(c4ncnc5[nH]ccc45)C3)c2)C1 (stereo partly shown) [compound 157] = > 7.00
20. Nc1ncnc(N2CC[C@H](F)[C@H](N3CCC[C@H](Nc4cc(F)cc(Cl)c4)C3=O)C2)c1F [compound 343] = < 5.00
21. O=C(Nc1cccc(C2CCCN(c3ncnc4[nH]ccc34)C2)c1)Nc1ccccc1N1CC[C@@H](O)C1 (stereo partly shown) [compound 149] = > 7.00
22. Cc1ccc(NC(=O)c2ccccc2)cc1C1CCCN(c2ncnc3[nH]ccc23)C1 (stereo not shown) [Cmpd 80] = < 5.00
23. O=C(Nc1cccc(C2CCCN(c3ncnc4[nH]ccc34)C2)c1)c1ccccn1 (stereo not shown) [compound 13] = < 5.00
24. CC(=O)Nc1cc(N2CCCC(c3cccc(NC(=O)Nc4ccccc4)c3)C2)ncn1 (stereo not shown) [Cmpd 92] = < 5.00
25. O=C1C(Nc2cc(Cl)cc(Cl)c2)CCCN1[C@H]1CN(c2ncnc3[nH]ccc23)CC[C@@H]1C(F)(F)F (stereo partly shown) [compound 339] = > 7.00
26. CN1CCCC(CNC(=O)Nc2cccc(C3CCCN(c4ncnc5[nH]ccc45)C3)c2)C1 (stereo not shown) [compound 225] = < 5.00
27. CN(C(=O)Nc1ccccc1)c1cccc(C2CCCN(c3ncnc4[nH]ccc34)C2)c1 (stereo not shown) [compound 136] = < 5.00
28. O=C(Nc1cccc(C2CCCN(c3ncnc4[nH]ccc34)C2)c1)Nc1ccccc1N1CCC[C@H]1CO (stereo partly shown) [compound 152] = > 7.00
29. CCOC(=O)CCc1c(N)ncnc1N1CCCC(c2cccc(NC(=O)Nc3ccccc3)c2)C1 (stereo not shown) [compound 253] = < 5.00
30. Cc1ccc(NC(=O)Nc2ccccc2)cc1C1CCCN(c2ncnc3[nH]ccc23)C1 (stereo not shown) [Cmpd 79] = < 5.00
31. CC(C)(C#N)c1ccccc1NC(=O)Nc1cccc(C2CCCN(c3ncnc4[nH]ccc34)C2)c1 (stereo not shown) [compound 260] = < 5.00
